- Tested on: Trypanosoma brucei rhodesiense
- RUN DESCRIPTION: Antitrypanosomal activity against wild-type Trypanosoma brucei rhodesiense STIB900 infected in NMRI mouse assessed as survival of mouse at 25 mg/kg, po for 4 days
- Assay type: functional
ASSAY METRIC: MSD

MSD in this record for CO/N=C(/N)c1ccc(-c2ccc(-c3ccc(/C(N)=N/O)cn3)o2)nc1 : >61 days

MSD in this record for CO/N=C(\N)c1ccc(-c2ccc(-c3ccc(/C(N)=N/OC)cn3)o2)cc1 : >60 days

MSD in this record for CO/N=C(\N)c1ccc(-c2ccc(-c3ccc(/C(N)=N/OC)cn3)o2)nc1 : >42 days

MSD in this record for CO/N=C(/N)c1ccc(-c2ccc(-c3ccc(/C(N)=N/O)cc3)o2)nc1 : >60 days

MSD in this record for CO/N=C(\N)c1ccc(-c2ccc(-c3ccc(/C(N)=N\O)cn3)o2)cc1 : >60 days

MSD in this record for CONC(=N)c1ccc(-c2ccc(-c3ccc(C(=N)NOC)cc3)o2)cc1 : >60 days

---

- RUN DESCRIPTION: Ratio of IC50 for Trypanosoma brucei gambiense STIB930 to IC50 for wild-type Trypanosoma brucei rhodesiense […]
- Assay type: functional
ASSAY METRIC: Ratio IC50
// return a plain number; no unit text

Ratio IC50 in this record for N=C(N)c1ccc(-c2ccc(-c3ccc(C(=N)N)cc3)o2)cc1 : 5.3

Ratio IC50 in this record for N=C(N)c1ccc(-c2ccc(-c3ccc(C(=N)N)cn3)o2)nc1 : 5.4

Ratio IC50 in this record for N=C(N)c1ccc(OCCCCCOc2ccc(C(=N)N)cc2)cc1 : 0.9

Ratio IC50 in this record for Nc1nc(N)nc(Nc2ccc([As]3SCC(CO)S3)cc2)n1 (stereo not given) : 3.9

Ratio IC50 in this record for N=C(N)c1ccc(-c2ccc(-c3ccc(C(=N)N)cn3)o2)cc1 : 3.5

---

Kindly supply the reported MSD values for the records listed here.
- System: Trypanosoma brucei rhodesiense
- RUN DESCRIPTION: Antitrypanosomal activity against wild-type Trypanosoma brucei rhodesiense STIB900 infected in NMRI mouse assessed as survival of mouse at 20 mg/kg, ip for 4 days
- Type: functional
- CONDITION INFO: route intraperitoneal

MSD in this record for N=C(N)c1ccc(OCCCCCOc2ccc(C(=N)N)cc2)cc1 : >57.5 days

MSD in this record for N=C(N)c1ccc(-c2ccc(-c3ccc(C(=N)N)cc3)o2)cc1 : >57.75 days

MSD in this record for N=C(N)c1ccc(-c2ccc(-c3ccc(C(=N)N)cn3)o2)cc1 : >60 days

MSD in this record for N=C(N)c1ccc(-c2ccc(-c3ccc(C(=N)N)cn3)o2)nc1 : >60 days

---

- Tested on: Trypanosoma brucei rhodesiense
- RUN DESCRIPTION: Ratio of IC50 for pentamidine-resistant Trypanosoma brucei rhodesiense STIB900 to IC50 for wild-type Trypanosoma brucei rhodesiense STIB900
- Format: functional
Kindly supply the reported Ratio IC50 values for the records listed here.
// return a plain number; no unit text

Ratio IC50 in this record for Nc1nc(N)nc(Nc2ccc([As]3SCC(CO)S3)cc2)n1 (stereo not given) : 20.9

Ratio IC50 in this record for N=C(N)c1ccc(-c2ccc(-c3ccc(C(=N)N)cn3)o2)nc1 : 10.5

Ratio IC50 in this record for N=C(N)c1ccc(-c2ccc(-c3ccc(C(=N)N)cn3)o2)cc1 : 9.6

Ratio IC50 in this record for N=C(N)c1ccc(-c2ccc(-c3ccc(C(=N)N)cc3)o2)cc1 : 14.7

Ratio IC50 in this record for N=C(N)c1ccc(OCCCCCOc2ccc(C(=N)N)cc2)cc1 : 113.1
